protocolText: The compound was tested for brain to plasma partition in rat.
Type: ADME, organism-based
measurementParameters: brain and plasma, read-out: AUC ratio
measurementName: Kp
Give bare numbers.

Query `Cc1cccc2nc(N3CCN(C)CC3)c3cccn3c12` yields Kp of 9.5

----------
system: 5-hydroxytryptamine receptor 2C (Rattus norvegicus, UniProt P08909)
Sequence (P08909 whole entry): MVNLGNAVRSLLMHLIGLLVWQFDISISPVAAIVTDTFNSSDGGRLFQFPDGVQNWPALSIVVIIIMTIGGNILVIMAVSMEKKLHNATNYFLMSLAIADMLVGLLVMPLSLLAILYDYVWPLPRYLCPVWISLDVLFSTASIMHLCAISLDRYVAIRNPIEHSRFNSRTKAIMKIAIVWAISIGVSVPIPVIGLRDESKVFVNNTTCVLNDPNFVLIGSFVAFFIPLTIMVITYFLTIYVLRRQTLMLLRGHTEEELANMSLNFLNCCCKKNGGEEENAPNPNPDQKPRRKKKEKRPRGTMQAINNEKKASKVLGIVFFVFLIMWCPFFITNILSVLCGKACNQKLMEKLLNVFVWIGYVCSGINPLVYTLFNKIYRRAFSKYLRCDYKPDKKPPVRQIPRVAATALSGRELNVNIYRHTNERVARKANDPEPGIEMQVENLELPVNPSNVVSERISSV
protocolText: The compound was tested for the binding affinity against 5-hydroxytryptamine 2C receptor using [3H]mesulergine as radioligand
measurementName: pKi
Answers are plain numbers, as −log10 of the molar value.

Query `CN1CCN(c2nc3ncccc3n3cccc23)CC1` yields pKi of 6.10

----------
system: Serotonin 3 (5-HT3) receptor (Rattus norvegicus, UniProt P35563+Q9JJ16)
Sequence (P35563 whole entry): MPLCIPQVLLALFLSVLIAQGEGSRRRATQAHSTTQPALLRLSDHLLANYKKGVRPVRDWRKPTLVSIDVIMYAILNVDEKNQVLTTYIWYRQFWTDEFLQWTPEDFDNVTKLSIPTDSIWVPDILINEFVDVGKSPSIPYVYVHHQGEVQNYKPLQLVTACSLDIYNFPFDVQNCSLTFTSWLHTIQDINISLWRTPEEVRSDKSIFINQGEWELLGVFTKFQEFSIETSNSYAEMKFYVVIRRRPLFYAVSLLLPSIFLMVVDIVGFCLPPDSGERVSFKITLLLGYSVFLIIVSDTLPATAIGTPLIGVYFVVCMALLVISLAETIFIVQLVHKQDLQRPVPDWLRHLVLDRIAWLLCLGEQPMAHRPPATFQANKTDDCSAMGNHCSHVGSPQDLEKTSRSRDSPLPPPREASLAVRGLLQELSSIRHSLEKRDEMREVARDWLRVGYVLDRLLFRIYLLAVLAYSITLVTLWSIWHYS
Sequence (Q9JJ16 whole entry): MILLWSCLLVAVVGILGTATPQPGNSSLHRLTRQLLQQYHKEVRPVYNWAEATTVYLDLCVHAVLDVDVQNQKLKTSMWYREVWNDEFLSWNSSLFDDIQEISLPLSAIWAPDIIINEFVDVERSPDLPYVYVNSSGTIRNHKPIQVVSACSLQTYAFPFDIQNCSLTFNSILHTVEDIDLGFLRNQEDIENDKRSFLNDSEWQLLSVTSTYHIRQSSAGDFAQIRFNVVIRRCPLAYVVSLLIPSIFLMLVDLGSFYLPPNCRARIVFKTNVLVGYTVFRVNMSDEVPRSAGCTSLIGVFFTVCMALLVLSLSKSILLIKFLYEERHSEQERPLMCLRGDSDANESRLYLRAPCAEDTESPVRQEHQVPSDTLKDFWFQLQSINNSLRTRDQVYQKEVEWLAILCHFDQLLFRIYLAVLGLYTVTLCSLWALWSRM
protocolText: The compound was tested for the binding affinity against 5-hydroxytryptamine 3 receptor using [3H]zacopride as radioligand
Format: protein-complex assay
For each record, write down the corresponding pKi.
One number for each entry, as −log10 of the molar value.

Take a look at these entries with their results.
{"structureAsSmiles": "OCCN1CCN(c2nc3cccc(F)c3n3cccc23)CC1", "system": "Serotonin 3 (5-HT3) receptor (Rattus norvegicus, UniProt P35563+Q9JJ16)", "pKi": 8.10}
{"structureAsSmiles": "CN1CCN(c2nc3ncccc3n3cccc23)CC1", "system": "Serotonin 3 (5-HT3) receptor (Rattus norvegicus, UniProt P35563+Q9JJ16)", "pKi": 8.60}

Query `c1ccc(CN2CCN(c3nc4ncccc4n4cccc34)CC2)cc1` yields pKi of 8.70

----------
For each record, write down the corresponding Ki.
system: 5-hydroxytryptamine receptor 2A (Rattus norvegicus, UniProt P14842)
Sequence (P14842 whole entry): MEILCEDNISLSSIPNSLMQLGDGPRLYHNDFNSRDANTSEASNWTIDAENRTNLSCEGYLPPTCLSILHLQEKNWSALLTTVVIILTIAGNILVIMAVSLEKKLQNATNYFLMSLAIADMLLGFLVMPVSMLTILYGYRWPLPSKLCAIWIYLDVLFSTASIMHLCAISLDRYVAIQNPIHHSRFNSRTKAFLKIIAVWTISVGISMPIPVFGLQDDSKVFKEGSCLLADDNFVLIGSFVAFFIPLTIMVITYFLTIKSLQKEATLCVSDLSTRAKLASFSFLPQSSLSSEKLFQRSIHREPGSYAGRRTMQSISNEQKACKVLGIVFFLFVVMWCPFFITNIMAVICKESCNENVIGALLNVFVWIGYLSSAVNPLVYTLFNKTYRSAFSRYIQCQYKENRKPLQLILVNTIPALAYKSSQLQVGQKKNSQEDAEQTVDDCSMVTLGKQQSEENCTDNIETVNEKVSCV
protocolText: The compound was tested for the binding affinity against 5-hydroxytryptamine 2A receptor using [3H]ketanserin as radioligand.
Give bare numbers, in nM.

Take a look at these entries with their results.
{"structureAsSmiles": "c1csc(CN2CCN(c3nc4cccnc4n4cccc34)CC2)c1", "quantityUnit": "nM", "Ki": 1580}
{"structureAsSmiles": "c1ccc2nc(N3CCNCC3)ccc2c1", "quantityUnit": "nM", "Ki": 794}
{"structureAsSmiles": "OCCN1CCN(c2nc3cccc(F)c3n3cccc23)CC1", "quantityUnit": "nM", "Ki": 501}

For every item in the list below, what is its measured Ki?
1. Cc1cccc2nc(N3CCNCC3)c3cccn3c12
2. Cc1cccc2nc(N3CCN(C)CC3)c3cccn3c12

1: 1000; 2: 501

----------
protocolText: The compound was tested for brain to plasma partition in rat
Type: ADME, organism-based
measurementParameters: brain and plasma, read-out: AUC ratio
For each record, write down the corresponding Kp.

Take a look at these entries with their results.
{"structureAsSmiles": "Fc1cccc2nc(N3CCN(Cc4ccc5ccccc5c4)CC3)c3cccn3c12", "recordedResult": 2.8}
{"structureAsSmiles": "c1ccc(CN2CCN(c3nc4ncccc4n4cccc34)CC2)cc1", "recordedResult": 2.1}
{"structureAsSmiles": "CN1CCN(c2nc3ncccc3n3cccc23)CC1", "recordedResult": 4.9}
{"structureAsSmiles": "OCCN1CCN(c2nc3cccc(F)c3n3cccc23)CC1", "recordedResult": 20.3}

Okay, now this compound:
Query `N#CCN1CCN(c2nc3cccc(F)c3n3cccc23)CC1` yields Kp of 0.1

----------
For each record, write down the corresponding Ki.
system: 5-hydroxytryptamine receptor 2C (Rattus norvegicus, UniProt P08909)
protocolText: The compound was tested for the binding affinity against 5-hydroxytryptamine 2C receptor using [3H]Mesulergine as radioligand.

Take a look at these entries with their results.
{"compound": "Cc1cccc2nc(N3CCN(C)CC3)c3cccn3c12", "recordedResult": "> 10 µM"}
{"compound": "c1ccc2nc(N3CCNCC3)ccc2c1 [QUIPAZINE]", "recordedResult": "0.316 µM"}
{"compound": "c1csc(CN2CCN(c3nc4cccnc4n4cccc34)CC2)c1", "recordedResult": "> 10 µM"}
{"compound": "Cc1cccc2nc(N3CCNCC3)c3cccn3c12", "recordedResult": "1 µM"}

Query `OCCN1CCN(c2nc3cccc(F)c3n3cccc23)CC1` yields Ki of 2 µM

----------
For each record, write down the corresponding pEC50.
system: Serotonin 3 (5-HT3) receptor
protocolText: Effective concentration against 5-Hydroxytryptamine 3 receptor by measuring [14C]guanidinium uptake on NG108-15 cells.
One number for each entry, as −log10 of the molar value.

Take a look at these entries with their results.
{"structureAsSmiles": "OCCN1CCN(c2nc3cccc(F)c3n3cccc23)CC1", "recordedResult": 7.27}
{"structureAsSmiles": "CN1CCN(c2nc3cc(F)ccc3n3cccc23)CC1", "recordedResult": 8.52}
{"structureAsSmiles": "Cc1cccc2nc(N3CCN(C)CC3)c3cccn3c12", "recordedResult": 8.42}
{"structureAsSmiles": "OCCN1CCN(c2nc3cc(F)ccc3n3cccc23)CC1", "recordedResult": 8.62}
{"structureAsSmiles": "Cc1cccc2nc(N3CCNCC3)c3cccn3c12", "recordedResult": 8.02}

For every item in the list below, what is its measured pEC50?
1. CN1CCN(c2nc3cc(O)ccc3n3cccc23)CC1
2. c1ccc(CN2CCN(c3nc4ncccc4n4cccc34)CC2)cc1
3. Cc1ccc2c(c1)nc(N1CCN(C)CC1)c1cccn12
4. Fc1ccc2c(c1)nc(N1CCN(Cc3ccccc3)CC1)c1cccn12
5. CN1CCN(c2nc3ncccc3n3cccc23)CC1

1: 8.80; 2: 8.38; 3: 7.85; 4: 8.38; 5: 8.77

----------
system: 5-hydroxytryptamine receptor 4 (Cavia porcellus)
Sequence (O70528 whole entry): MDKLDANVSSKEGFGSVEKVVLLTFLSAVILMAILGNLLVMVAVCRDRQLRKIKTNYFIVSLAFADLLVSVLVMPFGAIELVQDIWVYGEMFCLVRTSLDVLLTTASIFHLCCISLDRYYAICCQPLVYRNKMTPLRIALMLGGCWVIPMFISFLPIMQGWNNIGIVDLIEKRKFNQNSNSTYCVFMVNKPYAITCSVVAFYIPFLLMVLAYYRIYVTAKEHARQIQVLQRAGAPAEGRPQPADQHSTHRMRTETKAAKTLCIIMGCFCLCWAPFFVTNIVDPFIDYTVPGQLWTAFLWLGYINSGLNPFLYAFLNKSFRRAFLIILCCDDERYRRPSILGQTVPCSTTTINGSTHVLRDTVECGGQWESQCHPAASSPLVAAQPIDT
protocolText: The compound was tested for the binding affinity against 5-hydroxytryptamine 4 receptor using [3H]GR-113808 as radioligand
measurementName: Ki

{"structureAsSmiles": "CN1CCN(c2nc3ncccc3n3cccc23)CC1", "recordedResult": "> 10 µM"}

Query `c1ccc(CN2CCN(c3nc4ncccc4n4cccc34)CC2)cc1` yields Ki of > 10 µM

----------
system: Serotonin 3 (5-HT3) receptor (Rattus norvegicus, UniProt P35563+Q9JJ16)
protocolText: Binding affinity against 5-hydroxytryptamine 3 (5-HT3) receptor from rat cortical homogenate using [3H]zacopride as radioligand
For each record, write down the corresponding pIC50.
Numbers only, as −log10 of the molar value.

Take a look at these entries with their results.
{"structureAsSmiles": "Cc1ccc2c(c1)nc(N1CCN(Cc3ccccc3)CC1)c1cccn12", "pIC50": 7.62}
{"structureAsSmiles": "Cc1ccc2c(c1)nc(N1CCNCC1)c1cccn12", "pIC50": 7.79}
{"structureAsSmiles": "CN1CCN(c2nc3cc(O)ccc3n3cccc23)CC1", "pIC50": 9.17}
{"structureAsSmiles": "c1cnc2nc(N3CCNCC3)c3cccn3c2c1", "pIC50": 8.51}
{"structureAsSmiles": "Cc1ccc2c(c1)nc(N1CCN(C)CC1)c1cccn12", "pIC50": 7.74}
{"structureAsSmiles": "c1ccc2nc(N3CCNCC3)ccc2c1", "pIC50": 8.42}
{"structureAsSmiles": "Cc1cccc2nc(N3CCN(Cc4ccc(Br)s4)CC3)c3cccn3c12", "pIC50": 6.98}
{"structureAsSmiles": "CN1CCN(c2nc3cc(OCc4ccccc4)ccc3n3cccc23)CC1", "pIC50": 6.65}

For every item in the list below, what is its measured pIC50?
1. Cc1cccc2nc(N3CCN(Cc4ccccc4)CC3)c3cccn3c12
2. Cc1cc2nc(N3CCN(Cc4ccccc4)CC3)c3cccn3c2cc1C
3. OCCN1CCN(c2nc3cccnc3n3ccnc23)CC1
4. CN1CCN(c2nc3cccnc3n3cccc23)CC1
5. O=C(O)CN1CCN(c2nc3cccc(F)c3n3cccc23)CC1
6. OCCN1CCN(c2nc3cc(F)ccc3n3cccc23)CC1
7. CN1CCN(c2nc3cc(F)ccc3n3ccnc23)CC1

[8.06, 7.36, 7.42, 9.00, 6.04, 8.59, 8.28]

For every item in the list below, what is its measured pIC50?
1. OCCN1CCN(c2nc3cccc(F)c3n3cccc23)CC1
2. Cc1cccc2nc(N3CCN(C)CC3)c3cccn3c12
3. c1ccc(CN2CCN(c3nc4cccnc4n4cccc34)CC2)cc1
4. Fc1ccc2c(c1)nc(N1CCN(Cc3ccccc3)CC1)c1cccn12
5. Cc1cc2nc(N3CCNCC3)c3cccn3c2cc1C
6. c1csc(CN2CCN(c3nc4cccnc4n4cccc34)CC2)c1
7. c1csc(CN2CCN(c3nc4ccccc4n4cccc34)CC2)c1

8.09
9.10
8.64
7.89
6.95
8.44
7.66

For every item in the list below, what is its measured pIC50?
1. Clc1cc2nc(N3CCN(Cc4ccccc4)CC3)c3cccn3c2cc1Cl
2. CN1CCN(c2nc3ccccc3c3ccnn23)CC1

[6.93, 8.80]

For every item in the list below, what is its measured pIC50?
1. c1ccc(CN2CCN(c3nc4ncccc4n4cccc34)CC2)cc1
2. CN1CCN(c2nc3cc(Cl)c(Cl)cc3n3cccc23)CC1
3. Cc1cccc2nc(N3CCNCC3)c3cccn3c12
4. Fc1ccc2c(c1)nc(N1CCN(Cc3ccco3)CC1)c1cccn12
5. Fc1ccc2c(c1)nc(N1CCN(Cc3cccs3)CC1)c1cccn12
6. N#CCN1CCN(c2nc3cccc(F)c3n3cccc23)CC1
7. Fc1ccc2c(c1)nc(N1CCN(Cc3ccc(Br)o3)CC1)c1cccn12
8. CN1CCN(c2nc3ccccc3n3ccnc23)CC1

8.66
7.01
8.95
7.96
7.92
5.42
6.83
8.42

For every item in the list below, what is its measured pIC50?
1. CN1[C@@H]2CC[C@H]1C[C@@H](OC(=O)c1cc(Cl)cc(Cl)c1)C2
2. CN1CCN(c2nccn3cccc23)CC1
3. Fc1cccc2nc(N3CCN(Cc4cccs4)CC3)c3cccn3c12
4. Fc1cccc2nc(N3CCN(CC4N=NN=N4)CC3)c3cccn3c12
5. CN1CCN(C2=NC=CN3CCN=C23)CC1
6. Fc1cccc2nc(N3CCN(Cc4ccc5ccccc5c4)CC3)c3cccn3c12

1: 7.01; 2: 5.71; 3: 7.22; 4: 6.16; 5: 5.44; 6: 6.11

For every item in the list below, what is its measured pIC50?
1. CN1CCN(c2nc3cccnc3n3ccnc23)CC1
2. Cc1cc2nc(N3CCN(C)CC3)c3cccn3c2cc1C
3. CN1CCN(c2nc3cc(C#N)ccc3n3cccc23)CC1

8.18
7.52
6.98

Provenance of the data: ChEMBL document CHEMBL1132449
